- experimental-protocol: total protein half-life in vivo (active degradation + dilution); higher = more stable protein
- condition-context: E. coli NCM3722 delta-lon; growth: N-lim chemostat; doubling time 6 h
Please go through the items and note down their total protein half-life in vivo.
Give bare numbers, in h.

>>> result_value("MDHRLLEIIACPVCNGKLWYNQEKQELICKLDNLAFPLRDGIPVLLETEARVLTADESKS [P0AAZ7]")
4.19
>>> result_value("MRRFFWLVAAALLLAGCAGEKGIVEKEGYQLDTRRQAQAAYPRIKVLVIHYTADDFDSSLATLTDKQVSSHYLVPAVPPRYNGKPRIWQLVPEQELAWHAGISAWRGATRLNDTSIGIELENRGWQKSAGVKYFAPFEPAQIQALIPLAKDIIARYHIKPENVVAHADIAPQRKDDPGPLFPWQQLAQQGIGAWPDAQRVNFYLAGRAPHTPVDTASLLELLARYGYDVKPDMTPREQRRVIMAFQMHFRPTLYNGEADAETQAIAEALLEKYGQD")
7.41
>>> result_value("MKVGFIGLGIMGKPMSKNLLKAGYSLVVADRNPEAIADVIAAGAETASTAKAIAEQCDVIITMLPNSPHVKEVALGENGIIEGAKPGTVLIDMSSIAPLASREISEALKAKGIDMLDAPVSGGEPKAIDGTLSVMVGGDKAIFDKYYDLMKAMAGSVVHTGEIGAGNVTKLANQVIVALNIAAMSEALTLATKAGVNPDLVYQAIRGGLAGSTVLDAKAPMVMDRNFKPGFRIDLHIKDLANALDTSHGVGAQLPLTAAVMEMMQALRADGLGTADHSALACYYEKLAKVEVTR [P0ABQ2]")
3.57

Hi team, please reply with total protein half-life in vivo for each item in this list.
1. MIVLVTGATAGFGECITRRFIQQGHKVIATGRRQERLQELKDELGDNLYIAQLDVRNRAAIEEMLASLPAEWCNIDILVNNAGLALGMEPAHKASVEDWETMIDTNNKGLVYMTRAVLPGMVERNHGHIINIGSTAGSWPYAGGNVYGATKAFVRQFSLNLRTDLHGTAVRVTDIEPGLVGGTEFSNVRFKGDDGKAEKTYQNTVALTPEDVSEAVWWVSTLPAHVNINTLEMMPVTQSYAGLNVHRQ
2. MTQPMPGKPAEDAENELDIRGLFRTLWAGKLWIIGMGLAFALIALAYTFFARQEWSSTAITDRPTVNMLGGYYSQQQFLRNLDVRSNMASADQPSVMDEAYKEFVMQLASWDTRREFWLQTDYYKQRMVGNSKADAALLDEMINNIQFIPGDFTRAVNDSVKLIAETAPDANNLLRQYVAFASQRAASHLNDELKGAWAARTIQMKAQVKRQEEVAKAIYDRRMNSIEQALKIAEQHNISRSATDVPAEELPDSEMFLLGRPMLQARLENLQAVGPAFDLDYDQNRAMLNTLNVGPTLDPRFQTYRYLRTPEEPVKRDSPRRAFLMIMWGIVGGLIGAGVALTRRCSK [P0AG00]
3. MSKNYHIAVLPGDGIGPEVMTQALKVLDAVRNRFAMRITTSHYDVGGAAIDNHGQPLPPATVEGCEQADAVLFGSVGGPKWEHLPPDQQPERGALLPLRKHFKLFSNLRPAKLYQGLEAFCPLRADIAANGFDILCVRELTGGIYFGQPKGREGSGQYEKAFDTEVYHRFEIERIARIAFESARKRRHKVTSIDKANVLQSSILWREIVNEIATEYPDVELAHMYIDNATMQLIKDPSQFDVLLCSNLFGDILSDECAMITGSMGMLPSASLNEQGFGLYEPAGGSAPDIAGKNIANPIAQILSLALLLRYSLDADDAACAIERAINRALEEGIRTGDLARGAAAVSTDEMGDIIARYVAEGV

1. 6.57
2. 6.55
3. 2.96

###

- experimental-protocol: total protein half-life in vivo (active degradation + dilution); higher = more stable protein
- condition-context: E. coli NCM3722 delta-smpB; growth: N-lim chemostat; doubling time 6 h
Answer each item with its documented total protein half-life in vivo.
Report the figure along with its unit, number first.

>>> result_value("MYRIVLGKVSTLSAAPLPPGLREQAPQGPRRERWLAGRALLSHTLSPLPEIIYGEQGKPAFAPEMPLWFNLSHSGDDIALLLSDEGEVGCDIEVIRPRANWRWLANAVFSLGEHAEMDAVHPDQQLEMFWRIWTRKEAIVKQRGGSAWQIVSVDSTYHSSLSVSHCQLENLSLAICTPTPFTLTADSVQWIDSVN")
"2.53 h"
>>> result_value("MANWQSIDELQDIASDLPRFIHALDELSRRLGLNITPLTADHISLRCHQNATAERWRRGFEQCGELLSENMINGRPICLFKLHEPVQVAHWQFSIVELPWPGEKRYPHEGWEHIEIVLPGDPETLNARALALLSDEGLSLPGISVKTSSPKGEHERLPNPTLAVTDGKTTIKFHPWSIEEIVASEQSA")
"3.04 h"
>>> result_value("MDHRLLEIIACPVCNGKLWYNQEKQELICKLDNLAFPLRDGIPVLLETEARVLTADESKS [P0AAZ7]")
"4.65 h"
>>> result_value("MADITLISGSTLGGAEYVAEHLAEKLEEAGFTTETLHGPLLEDLPASGIWLVISSTHGAGDIPDNLSPFYEALQEQKPDLSAVRFGAIGIGSREYDTFCGAIDKLEAELKNSGAKQTGETLKINILDHDIPEDPAEEWLGSWVNLLK")
"2.78 h"

# query: total protein half-life in vivo of entry MSEKLQKVLARAGHGSRREIESIIEAGRVSVDGKIAKLGDRVEVTPGLKIRIDGHLISVRESAEQICRVLAYYKPEGELCTRNDPEGRPTVFDRLPKLRGARWIAVGRLDVNTCGLLLFTTDGELANRLMHPSREVEREYAVRVFGQVDDAKLRDLSRGVQLEDGPAAFKTIKFSGGEGINQWYNVTLTEGRNREVRRLWEAVGVQVSRLIRVRYGDIPLPKGLPRGGWTELDLAQTNYLRELVELPPETSSKVAVEKDRRRMKANQIRRAVKRHSQVSGGRRSGGRNNNG
4.94 h

###

- experimental-protocol: total protein half-life in vivo (active degradation + dilution); higher = more stable protein
- condition-context: wild type E. coli NCM3722; growth: C-lim chemostat; doubling time 6 h
Binning rule for recorded total protein half-life in vivo: low: < 4 h; middle: ≥ 4 h and < 6 h; high: ≥ 6 h

# example entries with known answers
>>> assigned_label("MSDDVALPLEFTDAAANKVKSLIADEDNPNLKLRVYITGGGCSGFQYGFTFDDQVNEGDMTIEKQGVGLVVDPMSLQYLVGGSVDYTEGLEGSRFIVTNPNAKSTCGCGSSFSI [P0ACC3]")
"low"
>>> assigned_label("MSTFKPLKTLTSRRQVLKAGLAALTLSGMSQAIAKDELLKTSNGHSKPKAKKSGGKRVVVLDPGHGGIDTGAIGRNGSKEKHVVLAIAKNVRSILRNHGIDARLTRSGDTFIPLYDRVEIAHKHGADLFMSIHADGFTNPKAAGASVFALSNRGASSAMAKYLSERENRADEVAGKKATDKDHLLQQVLFDLVQTDTIKNSLTLGSHILKKIKPVHKLHSRNTEQAAFVVLKSPSVPSVLVETSFITNPEEERLLGTAAFRQKIATAIAEGVISYFHWFDNQKAHSKKR")
"low"
>>> assigned_label("MAIDENKQKALAAALGQIEKQFGKGSIMRLGEDRSMDVETISTGSLSLDIALGAGGLPMGRIVEIYGPESSGKTTLTLQVIAAAQREGKTCAFIDAEHALDPIYARKLGVDIDNLLCSQPDTGEQALEICDALARSGAVDVIVVDSVAALTPKAEIEGEIGDSHMGLAARMMSQAMRKLAGNLKQSNTLLIFINQIRMKIGVMFGNPETTTGGNALKFYASVRLDIRRIGAVKEGENVVGSETRVKVVKNKIAAPFKQAEFQILYGEGINFYGELVDLGVKEKLIEKAGAWYSYKGEKIGQGKANATAWLKDNPETAKEIEKKVRELLLSNPNSTPDFSVDDSEGVAETNEDF [P0A7G6]")
"middle"
>>> assigned_label("MDLRRFITLKTVVEEGSFLRASQKLCCTQSTVTFHIQQLEQEFSVQLFEKIGRRMCLTREGKKLLPHIYELTRVMDTLREAAKKESDPDGELRVVSGETLLSYRMPQVLQRFRQRAPKVRLSLQSLNCYVIRDALLNDEADVGVFYRVGNDDALNRRELGEQSLVLVASPQIADVDFTEPGRHNACSFIINEPQCVFRQIFESTLRQRRITVENTIELISIESIKRCVAANIGVSYLPRFAVAKELECGELIELPFGEQSQTITAMCAHHAGKAVSPAMHTFIQCVEESFVAG")
"middle"
>>> assigned_label("MSNLTYLQGYPEQLLSQVRTLINEQRLGDVLAKRYPGTHDYATDKALWQYTQDLKNQFLRNAPPINKVMYDNKIHVLKNALGLHTAVSRVQGGKLKAKVEIRVATVFRNAPEPFLRMIVVHELAHLKEKEHNKAFYQLCCHMEPQYHQLEFDTRLWLTQLSLGQNKI")
"low"
>>> assigned_label("MTKYALVGDVGGTNARLALCDIASGEISQAKTYSGLDYPSLEAVIRVYLEEHKVEVKDGCIAIACPITGDWVAMTNHTWAFSIAEMKKNLGFSHLEIINDFTAVSMAIPMLKKEHLIQFGGAEPVEGKPIAVYGAGTGLGVAHLVHVDKRWVSLPGEGGHVDFAPNSEEEAIILEILRAEIGHVSAERVLSGPGLVNLYRAIVKADNRLPENLKPKDITERALADSCTDCRRALSLFCVIMGRFGGNLALNLGTFGGVFIAGGIVPRFLEFFKASGFRAAFEDKGRFKEYVHDIPVYLIVHDNPGLLGSGAHLRQTLGHIL [P0A6V8]")
"high"
>>> assigned_label("MFDSLAKAGKYLGQAAKLMIGMPDYDNYVEHMRVNHPDQTPMTYEEFFRERQDARYGGKGGARCC [P0AAS9]")
"low"
>>> assigned_label("MTTQYGFFIDSSRCTGCKTCELACKDYKDLTPEVSFRRIYEYAGGDWQEDNGVWHQNVFAYYLSISCNHCEDPACTKVCPSGAMHKREDGFVVVDEDVCIGCRYCHMACPYGAPQYNETKGHMTKCDGCYDRVAEGKKPICVESCPLRALDFGPIDELRKKHGDLAAVAPLPRAHFTKPNIVIKPNANSRPTGDTTGYLANPKEV")
"high"
>>> assigned_label("MAAINTKVKKAVIPVAGLGTRMLPATKAIPKEMLPLVDKPLIQYVVNECIAAGITEIVLVTHSSKNSIENHFDTSFELEAMLEKRVKRQLLDEVQSICPPHVTIMQVRQGLAKGLGHAVLCAHPVVGDEPVAVILPDVILDEYESDLSQDNLAEMIRRFDETGHSQIMVEPVADVTAYGVVDCKGVELAPGESVPMVGVVEKPKADVAPSNLAIVGRYVLSADIWPLLAKTPPGAGDEIQLTDAIDMLIEKETVEAYHMKGKSHDCGNKLGYMQAFVEYGIRHNTLGTEFKAWLEEEMGIKK [P0AEP3]")
"middle"

Please classify: MQKDALNNVHITDEQVLMTPEQLKAAFPLSLQQEAQIADSRKSISDIIAGRDPRLLVVCGPCSIHDPETALEYARRFKALAAEVSDSLYLVMRVYFEKPRTTVGWKGLINDPHMDGSFDVEAGLQIARKLLLELVNMGLPLATEALDPNSPQYLGDLFSWSAIGARTTESQTHREMASGLSMPVGFKNGTDGSLATAINAMRAAAQPHRFVGINQAGQVALLQTQGNPDGHVILRGGKAPNYSPADVAQCEKEMEQAGLRPSLMVDCSHGNSNKDYRRQPAVAESVVAQIKDGNRSIIGLMIESNIHEGNQSSEQPRSEMKYGVSVTDACISWEMTDALLREIHQDLNGQLTARVA
low
